- ASSAY COMMENT: In vivo pharmacokinetic assay on mouse
- ASSAY SETUP: mouse, plasma, oral; ICR mice, ig 10 mg/kg vs iv 1 mg/kg; read-out: Absolute bioavailability F %
PARAMETER: bioavailability (%)
Report as a plain number; the unit % is understood.

Quick one: bioavailability of `CC#CC(=O)N1[C@@H]2COC[C@@H]2C[C@H]1c1nc(-c2ccc(C(=O)Nc3ccccn3)cc2)c2c(N)nccn12` ?
72.4

* * *

- ASSAY COMMENT: In vivo pharmacokinetic assay on mouse
- ASSAY SETUP: mouse, plasma; ICR mice, iv 1 mg/kg; read-out: Vz
PARAMETER: Vd (L/kg)
Use L/kg as the unit, but write only the number.

Recorded Vd for CC#CC(=O)N1[C@@H]2COC[C@@H]2C[C@H]1c1nc(-c2ccc(C(=O)Nc3ccccn3)cc2)c2c(N)nccn12 [Compound I-1] , please?
21.5

* * *

- ASSAY COMMENT: Rat liver microsome metabolic stability
- Format: in vitro ADME
- ASSAY SETUP: rat liver microsomes
- Protocol: 3.3 Rat Liver Microsome Assay 300 μL of final incubation system: 30 μL of rat liver microsomes (protein concentration: 5 mg/mL, XENOTECH, USA), 30 μL of NADPH (10 mM)+MgCl2 (5 mM), 3 μL of the substrate, i.e., the example compound (dissolved in 50% aqueous acetonitrile solution, 100 μM), and 237 μL of PBS buffer, wherein the proportion of the organic solvent (acetonitrile) was 0.5%. […]
Rat (RLM) Remaining % (T = 60 min) reference
Reply with just the number (in %).

// solved cases for Rat (RLM) Remaining % (T = 60 min) follow
MOLECULE	Rat (RLM) Remaining % (T = 60 min), %
Nc1nccn2c([C@@H]3C[C@H]4COC[C@H]4N3C(=O)C3CC3)nc(-c3ccc(C(=O)Nc4cc(C(F)(F)F)ccn4)cc3F)c12 [Compound I-7]	33.9
C=CC(=O)N1[C@@H]2COC[C@@H]2C[C@H]1c1nc(-c2ccc(C(=O)Nc3ccccn3)cc2)c2c(N)nccn12 [Compound I-3]	42
CC#CC(=O)N1[C@@H]2COC[C@@H]2C[C@H]1c1nc(-c2ccc(C(=O)Nc3cc(C(F)(F)F)ccn3)cc2F)c2c(N)nccn12 [Compound I-4]	26

# next molecule below
Report Rat (RLM) Remaining % (T = 60 min) for CC#CC(=O)N1[C@@H]2COC[C@@H]2C[C@H]1c1nc(-c2ccc(C(=O)Nc3ccccn3)cc2)c2c(N)nccn12 [Compound I-1] please.
30

* * *

- ASSAY COMMENT: Human liver microsome metabolic stability
- Format: in vitro ADME
- ASSAY SETUP: human liver microsomes
Parameter: Human (HLM) Remaining % (T = 60 min). Scope: all listed entries.
# output: bare number, implied unit %

Recorded Human (HLM) Remaining % (T = 60 min), per entry:
MOLECULE	PARAMETER	RESULT NUMBER
CC#CC(=O)N1[C@@H]2COC[C@@H]2C[C@H]1c1nc(-c2ccc(C(=O)Nc3cc(C(F)(F)F)ccn3)cc2F)c2c(N)nccn12 [Compound I-4]	Human (HLM) Remaining % (T = 60 min)	15
Nc1nccn2c([C@@H]3C[C@H]4COC[C@H]4N3C(=O)C3CC3)nc(-c3ccc(C(=O)Nc4cc(C(F)(F)F)ccn4)cc3F)c12 [Compound I-7]	Human (HLM) Remaining % (T = 60 min)	29.9
C=CC(=O)N1[C@@H]2COC[C@@H]2C[C@H]1c1nc(-c2ccc(C(=O)Nc3ccccn3)cc2)c2c(N)nccn12 [Compound I-3]	Human (HLM) Remaining % (T = 60 min)	74

Proceed to the following item.
Quick one: Human (HLM) Remaining % (T = 60 min) for CC#CC(=O)N1[C@@H]2COC[C@@H]2C[C@H]1c1nc(-c2ccc(C(=O)Nc3ccccn3)cc2)c2c(N)nccn12 [Compound I-1] ?
89

* * *

- ASSAY COMMENT: In vivo pharmacokinetic assay on mouse
- ASSAY SETUP: mouse, plasma, po; ICR mice, ig 10 mg/kg
PARAMETER: Tmax (min)
Write it as a number; the unit min goes unstated.

Any idea what its Tmax is? The compound is `CC#CC(=O)N1[C@@H]2COC[C@@H]2C[C@H]1c1nc(-c2ccc(C(=O)Nc3ccccn3)cc2)c2c(N)nccn12`
15

* * *

- ASSAY COMMENT: In vivo pharmacokinetic assay on mouse
- ASSAY SETUP: mouse, plasma; ICR mice, iv 1 mg/kg
- Method: EXPERIMENTAL EXAMPLE 4: IN VIVO PHARMACOKINETIC ASSAY ON MOUSE ICR mice weighing 18-22 g were randomly grouped into 9 mice in each group after being fed for 3-5 days, and administered intragastrically with related compound at a dose of 10 mg/kg, and injected intravenously with the test compound at a dose of 1 mg/kg, respectively. […] Oral and intravenous exposure of the compounds disclosed herein was evaluated by pharmacokinetic experiments in mice and the results are shown in Table 4.
PARAMETER: AUC(0-t) (ng·h/mL)
Give just the numeric value; ng·h/mL need not be written.

# lookup: AUC(0-t) of `CC#CC(=O)N1[C@@H]2COC[C@@H]2C[C@H]1c1nc(-c2ccc(C(=O)Nc3ccccn3)cc2)c2c(N)nccn12`
43.6

* * *

- EXPERIMENTAL SYSTEM: EGFR (WT) (Homo sapiens)
- Sequence (P00533 25-1210, species assumed): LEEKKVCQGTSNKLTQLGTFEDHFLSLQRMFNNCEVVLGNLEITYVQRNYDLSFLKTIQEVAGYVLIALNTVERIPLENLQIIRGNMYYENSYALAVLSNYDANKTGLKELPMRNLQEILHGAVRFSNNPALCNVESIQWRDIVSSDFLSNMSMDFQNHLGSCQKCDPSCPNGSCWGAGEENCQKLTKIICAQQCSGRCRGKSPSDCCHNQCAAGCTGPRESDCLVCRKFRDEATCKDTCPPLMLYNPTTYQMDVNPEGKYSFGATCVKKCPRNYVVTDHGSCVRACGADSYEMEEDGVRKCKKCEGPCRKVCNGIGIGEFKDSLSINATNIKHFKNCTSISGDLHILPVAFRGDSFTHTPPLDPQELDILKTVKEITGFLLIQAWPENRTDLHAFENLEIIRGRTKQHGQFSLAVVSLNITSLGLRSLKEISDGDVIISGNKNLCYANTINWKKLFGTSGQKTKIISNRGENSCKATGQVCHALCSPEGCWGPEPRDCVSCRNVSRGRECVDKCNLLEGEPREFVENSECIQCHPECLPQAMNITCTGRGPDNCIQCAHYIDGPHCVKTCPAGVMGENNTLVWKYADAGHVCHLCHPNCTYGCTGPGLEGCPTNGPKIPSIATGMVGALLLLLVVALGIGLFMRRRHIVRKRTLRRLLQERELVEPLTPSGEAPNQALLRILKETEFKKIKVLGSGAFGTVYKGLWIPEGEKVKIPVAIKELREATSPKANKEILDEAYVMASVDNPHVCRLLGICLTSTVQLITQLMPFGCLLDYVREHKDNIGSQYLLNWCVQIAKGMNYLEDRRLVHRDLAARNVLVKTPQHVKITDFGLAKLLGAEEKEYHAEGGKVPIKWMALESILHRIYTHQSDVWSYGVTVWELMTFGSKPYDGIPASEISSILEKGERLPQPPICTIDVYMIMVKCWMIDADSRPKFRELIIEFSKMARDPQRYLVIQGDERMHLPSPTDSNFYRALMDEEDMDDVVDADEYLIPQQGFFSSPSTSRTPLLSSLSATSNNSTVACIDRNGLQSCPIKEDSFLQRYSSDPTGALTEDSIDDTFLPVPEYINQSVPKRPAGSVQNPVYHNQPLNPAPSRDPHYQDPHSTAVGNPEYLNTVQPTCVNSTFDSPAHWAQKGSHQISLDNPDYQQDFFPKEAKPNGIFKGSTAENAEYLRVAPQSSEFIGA
- ASSAY COMMENT: Screening for EGFR inhibitory activity
- Assay type: biochemical
Reported values of IC50 for individual entries

MOL SMILES	RESULT
CC#CC(=O)N1[C@@H]2COC[C@@H]2C[C@H]1c1nc(-c2ccc(C(=O)Nc3ccccn3)cc2)c2c(N)nccn12	> 1 µM

Below: the item to evaluate.
Record request: IC50 value, item `Nc1nccn2c([C@@H]3C[C@H]4COC[C@H]4N3C(=O)C3CC3)nc(-c3ccc(C(=O)Nc4cc(C(F)(F)F)ccn4)cc3F)c12`
> 1 µM

* * *

- EXPERIMENTAL SYSTEM: BTK (Y223) phosphorylation in Ramos lymphoma cells (Homo sapiens, UniProt Q06187)
- Construct: Ramos lymphoma cells in logarithmic growth phase were centrifuged; endogenous in cells
- Sequence (Q06187 whole entry): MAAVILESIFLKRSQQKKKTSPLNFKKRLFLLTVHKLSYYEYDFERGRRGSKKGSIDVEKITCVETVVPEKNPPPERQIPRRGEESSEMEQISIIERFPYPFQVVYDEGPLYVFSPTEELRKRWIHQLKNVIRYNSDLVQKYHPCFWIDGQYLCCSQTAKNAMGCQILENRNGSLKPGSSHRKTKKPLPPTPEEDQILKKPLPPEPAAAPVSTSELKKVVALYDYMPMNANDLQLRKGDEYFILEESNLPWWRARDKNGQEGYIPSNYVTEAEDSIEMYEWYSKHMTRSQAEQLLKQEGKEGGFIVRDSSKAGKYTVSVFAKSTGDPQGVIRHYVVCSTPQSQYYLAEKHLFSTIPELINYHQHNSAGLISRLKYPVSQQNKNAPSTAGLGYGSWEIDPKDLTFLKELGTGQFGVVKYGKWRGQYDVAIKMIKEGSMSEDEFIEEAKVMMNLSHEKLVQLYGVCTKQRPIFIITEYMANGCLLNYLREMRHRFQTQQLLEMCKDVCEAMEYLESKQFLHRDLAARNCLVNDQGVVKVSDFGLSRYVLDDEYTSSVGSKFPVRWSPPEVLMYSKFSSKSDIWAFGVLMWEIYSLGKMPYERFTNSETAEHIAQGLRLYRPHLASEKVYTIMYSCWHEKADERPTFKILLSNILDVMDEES
- ASSAY COMMENT: BTK (Y223) phosphorylation inhibition at cell level
PARAMETER: pIC50
# log scale: pIC50 equals minus log10 of the concentration in mol/L

COMPOUND	RESULT NUMBER
Nc1nccn2c([C@@H]3C[C@H]4COC[C@H]4N3C(=O)C3CC3)nc(-c3ccc(C(=O)Nc4cc(C(F)(F)F)ccn4)cc3F)c12 [Compound I-7]	7.28
CC#CC(=O)N1[C@@H]2COC[C@@H]2C[C@H]1c1nc(-c2ccc(C(=O)Nc3ccccn3)cc2)c2c(N)nccn12 [Compound I-1]	7.52
C=CC(=O)N1[C@@H]2COC[C@@H]2C[C@H]1c1nc(-c2ccc(C(=O)Nc3ccccn3)cc2)c2c(N)nccn12 [Compound I-3]	7.60

Would you kindly look at the next entry?
Quick one: pIC50 for CC#CC(=O)N1[C@@H]2COC[C@@H]2C[C@H]1c1nc(-c2ccc(C(=O)Nc3cc(C(F)(F)F)ccn3)cc2F)c2c(N)nccn12 [Compound I-4] ?
7.18

* * *

The following molecules are shown together with reported IC50 values.
Sequence of the target: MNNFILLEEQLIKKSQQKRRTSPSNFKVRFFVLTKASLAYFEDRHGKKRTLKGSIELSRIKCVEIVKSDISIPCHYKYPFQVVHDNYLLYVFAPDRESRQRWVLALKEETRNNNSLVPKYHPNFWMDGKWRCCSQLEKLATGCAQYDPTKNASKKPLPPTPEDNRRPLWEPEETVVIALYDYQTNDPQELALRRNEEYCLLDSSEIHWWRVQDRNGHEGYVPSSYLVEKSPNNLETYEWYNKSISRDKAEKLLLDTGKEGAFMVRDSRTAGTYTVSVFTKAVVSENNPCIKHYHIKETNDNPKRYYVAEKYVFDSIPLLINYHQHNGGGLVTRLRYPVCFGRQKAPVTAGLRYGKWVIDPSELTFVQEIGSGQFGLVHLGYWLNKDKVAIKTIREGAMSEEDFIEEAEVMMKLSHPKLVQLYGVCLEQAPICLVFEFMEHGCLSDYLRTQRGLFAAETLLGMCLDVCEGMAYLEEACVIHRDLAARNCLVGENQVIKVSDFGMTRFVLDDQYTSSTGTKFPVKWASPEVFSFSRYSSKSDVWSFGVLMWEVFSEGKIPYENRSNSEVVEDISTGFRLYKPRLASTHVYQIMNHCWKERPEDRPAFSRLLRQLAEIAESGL

MOLECULE	PARAMETER	RESULT
Nc1nccn2c([C@@H]3C[C@H]4COC[C@H]4N3C(=O)C3CC3)nc(-c3ccc(C(=O)Nc4cc(C(F)(F)F)ccn4)cc3F)c12 [Compound I-7]	IC50	> 1000 nM

--- query ---
For the molecule shown here, C=CC(=O)N1[C@@H]2COC[C@@H]2C[C@H]1c1nc(-c2ccc(C(=O)Nc3ccccn3)cc2)c2c(N)nccn12 [Compound I-3] , give the reported IC50.
> 1000 nM
